Test system: MDA-MB-468 breast
measurement-notes: NCI tumour cell line growth inhibition, 48 h
measured-parameter: GI50

Cc1ccc(S(=O)(=O)NC(CCC(=O)Nc2ccc(Cl)cc2)C(=O)Nc2ccc(Cl)cc2)cc1 (stereo unspecified) : 1290 nM
COc1cccc(NC(=O)c2sc3nc4c(cc3c2N)CCCC4)c1 : 239 nM
CCCCCCCCCCCCCCCCCCNC(=O)[C@H]1CSC(c2ccc(OC)c(F)c2)N1 (stereo partly specified) : 18600 nM
O=[N+]([O-])c1ccc(N/N=C\c2cc(Cl)ccc2O)nc1 : 2510 nM
CCOC(=O)c1cnc(SCc2ccc(Cl)c(Cl)c2)nc1N1CC1 : 2400 nM
COc1ccccc1C(=O)/C=C/c1cc2cccc(OC)c2[nH]c1=O : 104 nM
